The reported measurements were obtained from patent US12331057B2.

experimental-system: Z-AAT (Homo sapiens, UniProt P01009, E366K)
Construct: Purified Z-AAT protein from human plasma; Vertex Cambridge Sample 4942)
Sequence (P01009 25-418 E366K): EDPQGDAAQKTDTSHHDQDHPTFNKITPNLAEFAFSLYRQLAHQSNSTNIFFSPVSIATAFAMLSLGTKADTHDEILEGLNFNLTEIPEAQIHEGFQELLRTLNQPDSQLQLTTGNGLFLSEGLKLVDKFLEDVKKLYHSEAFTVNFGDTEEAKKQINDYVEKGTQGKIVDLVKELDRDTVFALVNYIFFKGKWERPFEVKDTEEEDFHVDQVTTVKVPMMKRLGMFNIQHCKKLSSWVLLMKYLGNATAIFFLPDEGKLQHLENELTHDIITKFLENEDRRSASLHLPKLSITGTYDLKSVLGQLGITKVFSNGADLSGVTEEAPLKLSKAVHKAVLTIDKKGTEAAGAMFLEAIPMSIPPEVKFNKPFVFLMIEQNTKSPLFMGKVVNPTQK
measurement-protocol: Biochemical Assay (Z-AAT Elastase Activity Assay)
measurement-setup: purified Z-AAT protein from human plasma and purified human neutrophil elastase
Text: This assay measured the modulation of compounds 1-342 on Z-AAT SERPIN activity using purified Z-AAT protein and purified human neutrophil elastase (hNE). Normally, when active monomeric Z-AAT encounters a protease such as trypsin or elastase, it forms a 1:1 covalent “suicide” complex in which both the AAT and protease are irreversibly inactivated. However, compounds binding to Z-AAT can lead to a decrease in SERPIN activity. […]
endpoint-label: IC50

So the reported IC50 for "CC(C)(CC#N)c1c(-c2ccc(C(=O)O)cc2)c2cc3[nH]ncc3cc2n1-c1ccc(F)cc1" , on Z-AAT (Homo sapiens, UniProt P01009, E366K), turned out to be 400 to 1000 nM

So the reported IC50 for "Cc1cc(-c2c(C3CCOCC3)n(-c3ccc(F)cc3)c3cc4cn[nH]c4cc23)cnc1C(N)=O" , on Z-AAT (Homo sapiens, UniProt P01009, E366K), turned out to be > 30000 nM

So the reported IC50 for "Cc1n[nH]c2cc3c(-c4ccc(C(=O)O)cc4)c(C4CCOCC4)n(-c4ccc(F)cc4)c3cc12" , on Z-AAT (Homo sapiens, UniProt P01009, E366K), turned out to be > 1000 nM

So the reported IC50 for "O=C(O)c1ccc(-n2c(C3CCOCC3)c(-c3ccc(Cl)cc3)c3cc4cn[nH]c4cc32)cc1" , on Z-AAT (Homo sapiens, UniProt P01009, E366K), turned out to be > 1000 nM

So the reported IC50 for "CC(C)c1c(-c2ccc(C(=O)O)cc2OC2COC2)c2cc3[nH]ncc3cc2n1-c1ccc(F)cc1" , on Z-AAT (Homo sapiens, UniProt P01009, E366K), turned out to be > 1000 nM

So the reported IC50 for "O=C(O)c1ccc(-c2c(C3CCOCC3)n(-c3ccc(F)cc3)c3cc4cn[nH]c4cc23)c(F)c1F" , on Z-AAT (Homo sapiens, UniProt P01009, E366K), turned out to be > 1000 nM

So the reported IC50 for "COc1cc(C(=O)O)cnc1-c1c(C(C)C)n(-c2ccc(F)cc2)c2cc3cn[nH]c3cc12" , on Z-AAT (Homo sapiens, UniProt P01009, E366K), turned out to be > 30000 nM

So the reported IC50 for "[2H]c1c([2H])c(-c2c(C3CCOCC3)n(-[13c]3[13cH][13cH][13c](F)[13cH][13cH]3)c3cc4cn[nH]c4cc23)c([2H])c([2H])c1C(=O)O" , on Z-AAT (Homo sapiens, UniProt P01009, E366K), turned out to be > 1000 nM

So the reported IC50 for Cc1cc(-c2c(C3CCOCC3)n(-c3ccc(C(=O)NC4CNC(=O)C4)cc3)c3cc4[nH]ncc4cc23)ccn1 (stereo not drawn) , on Z-AAT (Homo sapiens, UniProt P01009, E366K), turned out to be > 30000 nM

So the reported IC50 for "COc1c(-c2c(C(C)C)n(-c3ccc(F)cc3)c3cc4cn[nH]c4cc23)ccc(C(=O)O)c1F" , on Z-AAT (Homo sapiens, UniProt P01009, E366K), turned out to be > 1000 nM

So the reported IC50 for "COc1ccc(-c2c(C(C)C)n(-c3ccc(F)cc3)c3cc4cn[nH]c4cc23)cc1C(=O)O" , on Z-AAT (Homo sapiens, UniProt P01009, E366K), turned out to be > 30000 nM

So the reported IC50 for "CC(C)(CS(C)(=O)=O)c1c(-c2ccc(C(N)=O)cc2)c2cc3[nH]ncc3cc2n1-c1ccc(F)cc1" , on Z-AAT (Homo sapiens, UniProt P01009, E366K), turned out to be > 1000 nM

So the reported IC50 for "Cc1c(-c2ccc(C(=O)O)cc2F)c2cc3[nH]ncc3cc2n1-c1cccc(F)c1" , on Z-AAT (Homo sapiens, UniProt P01009, E366K), turned out to be > 1000 nM

So the reported IC50 for "Oc1cccc(-c2c(C3CCOCC3)n(-c3ccc(F)cc3)c3cc4cn[nH]c4cc23)c1" , on Z-AAT (Homo sapiens, UniProt P01009, E366K), turned out to be > 30000 nM

So the reported IC50 for "CS(=O)(=O)Cn1cc(-c2c(C3CCOCC3)n(-c3ccc(F)cc3)c3cc4cn[nH]c4cc23)cn1" , on Z-AAT (Homo sapiens, UniProt P01009, E366K), turned out to be > 1000 nM
